FYI, the data here is from PubChem BioAssay (NCATS).

Assay: qHTS assay for small molecule agonists of the antioxidant response element (ARE) signaling pathway measured by Nrf2-dependant transcriptional activity - cell viability counter screen (AID 720653); note: % is set by controls: 0 for no effect and ±100 for the full control effect
Settings: ARE-bla HepG2 viability, CellTiter-Glo ATP luminescence, 16 h; hits give low values
From the text: National Center for Advancing Translational Sciences [NCATS] NIH Chemical Genomics Center [NCGC] U.S. Environmental Protection Agency [EPA] National Institutes of Environmental Health Sciences [NIEHS] National Toxicology Program [NTP] […] The activation of the report gene under culture conditions can be detected by fluorescence intensity. The cytotoxicity of the compounds against the ARE-bla HepG2 cell line was quantified by measuring the intracellular ATP content. […]
Records with an inconclusive call do not appear.
parameter: max response (%)
Give the value, in units of %, as a plain number.

Ask | Which max response is reported for this compound? CCC(C)O (stereo unspecified)
Reply | -9.02

Ask | Query: max response; subject: `COC(=O)CCC(=O)OC`
Reply | -12.8

Ask | Endpoint output: max response of `Cc1ccc([N+](=O)[O-])c(N)c1` . Value?
Reply | 6.11

Ask | Find the recorded max response belonging to `COc1cccc2sc(N)nc12` and report it.
Reply | 1.42

Ask | Consider the compound shown here: `Nc1cc(Cl)c([N+](=O)[O-])cc1O` What is its recorded max response?
Reply | -1.27

Ask | Please give the measured max response for this compound: `Nc1cccc2c(=O)[nH][nH]c(=O)c12`
Reply | 4.98

Ask | Which max response value belongs to `C=CCCCCCCC=C` ?
Reply | 5.83

Ask | Requested field: max response. Item: `Nc1nc2ccccc2[nH]1`
Reply | -4.79

Ask | Request the reported max response associated with `CC(=C/C=C/C(C)=C/C=C/C=C(C)/C=C/C=C(C)/C=C/C(=O)O)/C=C/C(=O)O`
Reply | -9.67

Ask | I'd like to know its max response. The compound in question is CCCCC(CC)CNCC(CC)CCCC (stereo unspecified)
Reply | 3.58

---

Test: Cell Viability - LYMP2-021 (AID 974);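 note: compound exposure lasts 24 hours at 37 °C; % is set by controls: 0 for no effect and ±100 for the full control effect; nearly all actives have a fitted effect of over 55% in size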
Settings: LYMP2-021 lymphoblastoid cells viability; series mostly up to 92.2 µM
Results filed as inconclusive are left out. The source made the active and inactive calls. The call rests on the fitted dose curve; in most records, active means well fitted cell-killing curve with a large enough effect; inconclusive means small, poorly fitted or top-dose-only effect; inactive means flat fitted curve, though single readings scatter.
Respond using exactly one of the listed classes: active, inactive

Ask | Could you kindly confirm the outcome this assay logged for `CCNS(=O)(=O)c1ccc(C)cc1` ?
Reply | inactive

---

Assay: Cellular Toxicity (caspase-3) H-4-II-E (AID 663);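 note: cells exposed to compound for 16 hr before readout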
Settings: H-4-II-E rat hepatoma, scaled: DMSO 0%, 100 µM tamoxifen 100%; at 92.2 µM (top of the series)
Records with an inconclusive call do not appear.
parameter: caspase-3 activation (%)
The response must be a number in % with no trailing unit.

Consider the following illustrative entries.
Ask | Name the reported caspase-3 activation value associated with the compound `COC(=O)CC#N`
Reply | 1.64

Ask | # query: caspase-3 activation of entry `O=C(O)c1cccc([N+](=O)[O-])c1`
Reply | -0.0521

Ask | caspase-3 activation for `Cc1cccc(C(=O)O)c1[N+](=O)[O-]` ?
Reply | 0.904

New cases:
Ask | For `CC(C)CCOC(=O)/C=C/c1ccccc1` , what is its reported caspase-3 activation?
Reply | 1.34

Ask | Which caspase-3 activation reading was recorded for the compound `O=Cc1ccc(CO)o1` ?
Reply | 1.58

Ask | // lookup caspase-3 activation for CCC(O)C(C)(C)C (stereo not drawn)
Reply | -0.43

Ask | Param item = `Clc1cc(Cl)cc(Cl)c1` ; retrieve measured caspase-3 activation.
Reply | 0.838

Ask | So what does the record say about caspase-3 activation for C[C@@H]1CC2(OC[C@]3(C)O[C@H]23)O[C@H]2C[C@@]3(C)[C@@H]4CC[C@H]5C(C)(C)C(O[C@@H]6OC[C@@H](O)[C@H](O)[C@H]6O)CC[C@@]56C[C@@]46CC[C@]3(C)[C@@H]12 (stereo partly drawn) ?
Reply | 2.6

---

Molecular target: Thyroid hormone receptor beta (Homo sapiens) (UniProt P10828)
Sequence (P10828 whole entry, looked up): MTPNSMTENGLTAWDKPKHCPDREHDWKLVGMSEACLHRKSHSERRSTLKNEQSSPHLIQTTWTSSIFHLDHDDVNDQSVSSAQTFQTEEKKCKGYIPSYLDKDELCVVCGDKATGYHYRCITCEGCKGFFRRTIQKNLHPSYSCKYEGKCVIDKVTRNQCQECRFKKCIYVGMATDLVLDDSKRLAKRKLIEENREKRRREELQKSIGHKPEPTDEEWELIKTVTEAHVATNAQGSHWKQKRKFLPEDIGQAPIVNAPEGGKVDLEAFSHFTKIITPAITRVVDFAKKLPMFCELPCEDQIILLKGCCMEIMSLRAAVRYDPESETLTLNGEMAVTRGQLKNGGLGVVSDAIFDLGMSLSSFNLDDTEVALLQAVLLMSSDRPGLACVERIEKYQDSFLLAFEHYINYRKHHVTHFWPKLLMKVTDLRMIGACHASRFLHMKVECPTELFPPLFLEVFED
Assay: qHTS assay for small molecule antagonists of thyroid hormone receptor beta signaling (AID 588547);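 note: cells stimulated with 0.4 nM T3 agonist during compound exposure; % is set by controls: 0 for no effect and ±100 for the full control effect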
Settings: TR-UAS-bla HEK293, beta-lactamase ratio, antagonist mode, 18 h
Results filed as inconclusive are left out.
# activity change % (negative = inhibition) per entry
Express the result in % but write the number alone.

Ask | Need activity change % (negative = inhibition), item `Clc1ccc(Cl)c(Cl)c1Cl`
Reply | 26.9

Ask | Please look up its activity change % (negative = inhibition): `Nc1ccccc1[N+](=O)[O-]`
Reply | -6.45

Ask | What value of measured activity change % (negative = inhibition) is listed for `CCCC=O` ?
Reply | -7

Ask | Fill blank: measured activity change % (negative = inhibition) of the compound CC(O)COC(C)(C)C (configuration not stated) is ____.
Reply | -13.8

Ask | Give its activity change % (negative = inhibition) value. Item: CC(=O)C1(C)CC2=C(CCCC2(C)C)CC1C (configuration not stated)
Reply | -1.03

Ask | Quick one: activity change % (negative = inhibition) of `CNC(=O)N(c1ccccc1)c1ccccc1` ?
Reply | 10.1

Ask | What does the data say about its activity change % (negative = inhibition)? Entry: `CCNc1cc(O)ccc1C`
Reply | 14.6

Ask | I have this compound here, `C=C(C)C(=O)OCCCCCC` , and I need its recorded activity change % (negative = inhibition).
Reply | 6.42

---

Assay: Cell Viability - LYMP2-022 (AID 987);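 note: cells exposed to compound for 24 hr; nearly all actives have a fitted effect of over 55% in size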
Details: LYMP2-022 lymphoblastoid cell viability; series mostly up to 92.2 µM
Results filed as inconclusive are left out. Active and inactive are the calls of the source. Calls come from the whole dose curve; as a rule, active = well fitted cell-killing curve with a large enough effect; inconclusive = small, poorly fitted or top-dose-only effect; inactive = flat fitted curve, though single readings scatter.
One label from this list, please: active, inactive

Ask | What did this assay record as the result for CC(C)(c1cc(Br)c(OCC(Br)CBr)c(Br)c1)c1cc(Br)c(OCC(Br)CBr)c(Br)c1 (stereo unspecified) ?
Reply | inactive

---
Ask | Hi, do you know how `c1ccc(Nc2ccccc2)cc1` came out in this test?
Reply | inactive

Ask | Check the results log: what was the call for `Nc1cc(Cl)c([N+](=O)[O-])cc1O` ?
Reply | inactive

Ask | Test call, this compound: `CCCCC(=O)N(C)C`
Reply | inactive

Ask | Short answer needed: outcome of this test for `C=C(C)C(=O)OC` ?
Reply | inactive

Ask | Which result was noted for this compound in the test: `Cc1cc([N+](=O)[O-])ccc1N`
Reply | inactive

Ask | Call for entry `Nc1nc2ccccc2[nH]1` :
Reply | inactive

Ask | So what was the verdict on `CC1=C(/C=C/C(C)=C/C=C/C(C)=C\C=O)C(C)(C)CCC1` in this test?
Reply | active

Ask | Any idea what this test logged for `CC(=O)c1nccs1` ?
Reply | inactive

Ask | Hi, do you know how `O=Cc1cccc(Br)c1` came out in this test?
Reply | inactive

Ask | Give the logged outcome of this assay for the following compound: `Cc1cccc(C)c1O`
Reply | inactive

---

Experiment: Cellular Toxicity (caspase-3) Jurkat (AID 655);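 note: cells exposed to compound for 16 h at 37 °C before reading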
Settings: Jurkat caspase-3 activation, luminescence; at 92.2 µM (top of the series), DMSO = 0%, tamoxifen = 100%
From the text: NIH Chemical Genomics Center [NCGC] NIH Molecular Libraries Screening Centers Network [MLSCN] National Institutes of Environmental Health Sciences [NIEHS] National Toxicology Program [NTP] We have developed a 1536-well cell-based assay for quantitative high throughput screening (qHTS) against a number of cell lines to determine in vitro caspase 3/7 of small molecules. […] 7. Detection; Luminescence; Viewlux plate reader […]
Records with an inconclusive call do not appear.
Let's look at some compounds and their measured caspase-3 activation.
Form entry: value (%) — number only.

Answered examples (3):
Ask | For CCCOCC(C)O (centres undefined) , what is its reported caspase-3 activation?
Reply | 3.45

Ask | GET /values?readout=caspase-3 activation&item= `Nc1cccc(S(=O)(=O)O)c1`
Reply | -0.29

Ask | Reported caspase-3 activation for C[C@@H]1CC2(OC3C[C@@]4(C)C5=CC[C@H]6C(C)(C)C(O[C@@H]7OC[C@@H](O)[C@H](O)[C@H]7O)CC[C@@]67C[C@@]57CC[C@]4(C)C31)OC(O)C1(C)OC21 (some centres undefined) : what is it?
Reply | 2.56

Next compound, please.
Ask | Quick one: caspase-3 activation for `C[C@@H]1O[C@@H](O[C@@H]2[C@@H](O)[C@H](OCCc3ccc(O)c(O)c3)O[C@H](CO[C@@H]3O[C@H](CO)[C@@H](O)[C@H](O)[C@H]3O)[C@H]2OC(=O)/C=C/c2ccc(O)c(O)c2)[C@H](O)[C@H](O)[C@H]1O` ?
Reply | -3.29

---

molecules and their reported activation
Experiment: qHTS assay for environmental chemicals that activate the Aryl hydrocarbon Receptor (AhR) signaling pathway (AID 651777); note: % of control where 0% means no effect; nearly all actives have a fitted effect of over 15% in size
Conditions: 1A2-DRE human hepatoma cells, luciferase, 24 h; hits give high values
Excerpt: National Center for Advancing Translational Sciences [NCATS] NIH Chemical Genomics Center [NCGC] U.S. Environmental Protection Agency [EPA] National Institutes of Environmental Health Sciences [NIEHS] National Toxicology Program [NTP] The Aryl hydrocarbon Receptor (AhR) plays a critical role in the development of cancer or neoplasm and its formation is most likely due to genetic mutations and the influence of environment. […]
Records with an inconclusive call do not appear.
Enter your answer as a number in %; do not include the unit.

Worked cases, answers included:
Ask | Any idea what activation was measured for CC1(N)CCC(C(C)(C)N)CC1 (stereo not drawn) ?
Reply | -0.642

Ask | GET /values?readout=activation&item= CCOC(=O)C(C)C(C)=O (stereo not drawn)
Reply | 0.277

Ask | Reported activation for C[C@@H]1CC2(OC[C@]3(C)O[C@H]23)O[C@H]2C[C@@]3(C)[C@@H]4CC[C@H]5C(C)(C)C(O[C@@H]6OC[C@@H](O)[C@H](O)[C@H]6O)CC[C@@]56C[C@@]46CC[C@]3(C)[C@@H]12 (stereo partly drawn) : what is it?
Reply | -1.5

---
Ask | Using the record for CC(C)=C1CCC(C)CC1=O (stereo not drawn) , report its activation.
Reply | -0.665

Ask | Can you share its activation? I mean this molecule: `BrC(Br)C(Br)Br`
Reply | -0.0804
